# Tested on: SuDHL4-3xBCL6-TK-Luc cells
# ASSAY_PROCEDURE: Cell-based BCL6 reporter luciferase assay
# COND: Homo sapiens, SU-DHL-4, 48 h, two days
PROPERTY_MEASURED: IC50 (nM)

[A] [2H]C([2H])([2H])NC(=O)C([2H])([2H])Oc1cc2cc(Nc3nc(N4C[C@@H](C)C(F)(F)[C@@H](C)C4)ncc3Cl)ccc2n(C)c1=O
[B] [2H]C([2H])([2H])NC(=O)C([2H])([2H])Oc1cc2cc(Nc3nc(N4C[C@H](C)C[C@H](C)C4)ncc3Cl)ccc2n(C)c1=O
API: POST /compare with A and B ; response names the item with higher IC50. Kindly state the label of the option you pick.
B

Source of measurements: patent US11505539B2
